Source of measurements: patent US20100272750A1

biological target: HLA DRB1*0101 (human); assay: competition with 125I probe peptide, purified HLA
pIC50: −log10 of the molar value.
Entry flag: MET if pIC50 reaches 6; NOT MET if it does not.

binder	class assignment
TGRCIACWRRPRTET (modifications not checked) [HPV31.E6.132 HTL epitope]	NOT MET
FHSIAGQYRGQCNTC (modifications not checked) [HPV45.E6.127 HTL epitope]	MET
NGWFYVEAVIDRQTG (modifications not checked) [HPV31.E1.15 HTL epitope]	NOT MET
QRFHNIRGRWTGRCM (modifications not checked) [HPV16.E6.130 HTL epitope]	MET
DWVMAIFGVNPTVAEGF (modifications not checked) [HPV45.E1.228 HTL epitope]	MET
